Test system: Escherichia coli TOP10
Experiment Notes: shrunken log2 fold change of peptide-encoding DNA abundance (4.5 h post-induction vs induction); higher = less antimicrobial activity (less host growth inhibition)
Experimental Conditions: time post-induction: 4.5 h; library: site-saturation at positions 5, 18, 19, 20
Kindly state shrunken log2 fold change for each of the entries shown.
Give bare numbers.

Worked examples, 3 sequences total:
RRIRTRPPRLPRPRPRPITTPRP ... -0.438
RRIRNRPPRLPRPRPRPNVKPRP ... -0.324
RRIRQRPPRLPRPRPRPPRAPRP ... 0.552

Look at each sequence and report its shrunken log2 fold change.
1. RRIRTRPPRLPRPRPRPHKYPRP
2. RRIRKRPPRLPRPRPRPHRSPRP
3. RRIRIRPPRLPRPRPRPWHRPRP

A:
[-0.295, 0.0882, 0.0544]

Look at each sequence and report its shrunken log2 fold change.
1. RRIRHRPPRLPRPRPRPPNYPRP
2. RRIRHRPPRLPRPRPRPWILPRP
3. RRIRSRPPRLPRPRPRPPCEPRP
4. RRIRGRPPRLPRPRPRPRRMPRP
5. RRIRMRPPRLPRPRPRPWTCPRP

A:
1. -0.0558
2. -0.223
3. -0.236
4. 0.706
5. -0.0398

Look at each sequence and report its shrunken log2 fold change.
1. RRIRERPPRLPRPRPRPIMLPRP
2. RRIRRRPPRLPRPRPRPVIDPRP
3. RRIRNRPPRLPRPRPRPMIRPRP

A:
1: -0.227; 2: -0.165; 3: -0.0231

---

System: Escherichia coli TOP10
Experiment Notes: shrunken log2 fold change of peptide-encoding DNA abundance (4.5 h post-induction vs induction); higher = less antimicrobial activity (less host growth inhibition)
Experimental Conditions: time post-induction: 4.5 h; library: site-saturation at positions 5, 18, 19, 20
Readout Type: shrunken log2 fold change
Give bare numbers.

RRIRVRPPRLPRPRPRPCLTPRP ... -0.0353

Look at each sequence and report its shrunken log2 fold change.
1. RRIRMRPPRLPRPRPRPHWVPRP
2. RRIRARPPRLPRPRPRPRDNPRP
3. RRIRFRPPRLPRPRPRPDTCPRP
4. RRIRERPPRLPRPRPRPQKKPRP
5. RRIRCRPPRLPRPRPRPSPNPRP

A:
[-0.0142, 0.295, -0.21, 0.0196, -0.102]

Look at each sequence and report its shrunken log2 fold change.
1. RRIRHRPPRLPRPRPRPTQDPRP
2. RRIRQRPPRLPRPRPRPWCSPRP

A:
[1.87, -0.0146]

---

Test system: Escherichia coli TOP10;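 further: peptides expressed intracellularly from a pBAD plasmid library in pooled LB shake-flask culture, induced with 0.3% L-arabinose, DNA abundance read by NGS, three biological replicates, DESeq2 with apeglm shrinkage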
Experiment Notes: shrunken log2 fold change of peptide-encoding DNA abundance (4.5 h post-induction vs induction); higher = less antimicrobial activity (less host growth inhibition)
Experimental Conditions: time post-induction: 4.5 h; library: site-saturation at positions 5, 18, 19, 20
Kindly state shrunken log2 fold change for each of the entries shown.
Numbers only.

Worked examples, 3 sequences total:
RRIRDRPPRLPRPRPRPRVHPRP ... -0.0969
RRIRLRPPRLPRPRPRPMWYPRP ... 0.0493
RRIRLRPPRLPRPRPRPCYGPRP ... -0.0306

Look at each sequence and report its shrunken log2 fold change.
1. RRIRLRPPRLPRPRPRPQVRPRP
2. RRIRLRPPRLPRPRPRPSRHPRP
3. RRIRWRPPRLPRPRPRPENEPRP
4. RRIRHRPPRLPRPRPRPCAMPRP

A:
0.0635
-0.415
0.194
-0.257
